Taken from the Human Domainome abundance scans (Beltran et al. 2025).

B1: Serine/threonine-protein kinase A-Raf, residues 21 to 89; numbered along this chain, P10398 (parent)
chain: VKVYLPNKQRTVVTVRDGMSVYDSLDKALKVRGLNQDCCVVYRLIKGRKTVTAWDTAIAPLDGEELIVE

Variants of: B1
Test: abundance fitness (aPCA) (normalised: wild type 0, dead -1); higher = more abundant; growth selection in yeast, the domain comes from the species named
Conditions: Homo sapiens
Values of abundance fitness greater than or equal to -0.07 map to class 1; values below map to class 0.

In [3]: df
Out[3]:
    mutation_name  label_class
 0           T14E      class 0
 1           L25K      class 0
 2           A28C      class 0
 3           M19R      class 0
 4           D26Q      class 1
 5           T14H      class 0
 6           R16I      class 0
 7           V31D      class 0
 8            K2R      class 1
 9            V1G      class 0
10           G63Q      class 0
11           R10W      class 1
